experimental.target: T1, Fc-CLEC1 labelled with Alexa Fluor 488 (human, Alexa Fluor 488 label (sites not given))
T1 construct: also called Fc-CLEC1-A488; Alexa488-Fc-Clec-1
T1 chain: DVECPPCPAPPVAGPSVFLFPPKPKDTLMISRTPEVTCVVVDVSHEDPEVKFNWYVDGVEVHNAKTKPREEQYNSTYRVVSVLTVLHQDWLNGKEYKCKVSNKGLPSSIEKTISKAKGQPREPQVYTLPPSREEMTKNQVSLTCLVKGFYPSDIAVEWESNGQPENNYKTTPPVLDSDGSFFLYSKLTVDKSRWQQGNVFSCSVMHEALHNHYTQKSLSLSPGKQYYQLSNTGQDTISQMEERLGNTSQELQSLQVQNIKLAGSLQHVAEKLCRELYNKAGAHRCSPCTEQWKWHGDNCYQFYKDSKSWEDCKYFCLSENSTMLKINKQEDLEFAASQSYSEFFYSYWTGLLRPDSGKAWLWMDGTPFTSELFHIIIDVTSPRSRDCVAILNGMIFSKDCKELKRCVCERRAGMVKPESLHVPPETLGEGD
assay.name: FACS competition: blocks Fc-CLEC1-A488 (10 nM) binding to CLEC-1 ligand on UV-treated PBMC; read-out % + cells
assay.readout: IC50 (µg/mL)
Numbers only; they are read as µg/mL.

Indicate its recorded IC50; the binder in question is murine anti-hCLEC1 antibody 14H9-F3 (antibody, V domains shown, Mouse hybridoma antibody) VH: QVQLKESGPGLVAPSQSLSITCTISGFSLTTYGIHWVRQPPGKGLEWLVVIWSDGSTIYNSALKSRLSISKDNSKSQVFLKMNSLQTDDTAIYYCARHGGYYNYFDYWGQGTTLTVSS VL: DIQMNQSPSSLSASLGDTITITCHASQNINVWLSWYQQKPGNIPKLLIYKASNLHTGVPSRFSGSGSGTTFTLTIDSLQPEDIATYYCQQGQSYWTFGGGTKLEIK
0.031
